assay_system: h FPR2 (Homo sapiens, UniProt P25090)
assay_text: Agonistic activity in hFPR2-Aq-CHO cells (FLIPR Calcium 5 fluorescence assay)
study_conditions: 11 point half log dilution, final assay concentration from 10µM
With a cut-off of 1 nM, any EC50 strictly below it is called fulfilled; any EC50 meeting it or above is called not fulfilled.

compound | cat
COc1ccc([C@@H]2CN(CC(C)(C)O)CC[C@H]2NC(=O)Nc2cc(C)ns2)nc1 (single isomer, unassigned) [Ex-177] | not fulfilled
COc1ccc([C@@H]2CN(CCC(N)=O)CC[C@H]2NC(=O)Nc2ccc(Cl)cc2)nc1 (relative stereo) [Ex-142] | not fulfilled
COc1ccc([C@@H]2CN(Cc3cc(C(F)(F)F)on3)CC[C@H]2NC(=O)Nc2ccc(Cl)cc2)nc1 (single isomer, unassigned) [Ex-37] | fulfilled
COc1ccc([C@@H]2CN(C3(C(N)=O)CC3)CC[C@H]2NC(=O)Nc2ccc(Cl)cc2)nc1 (relative stereo) [Ex-181] | fulfilled
CNCCC(=O)N1CC[C@@H](NC(=O)Nc2cc(C)ns2)[C@H](c2ccc(OC)cn2)C1 (relative stereo) [Ex-135] | not fulfilled
COc1ccc([C@@H]2CN(CC3(OC)CC3)CC[C@H]2NC(=O)Nc2ccc(Cl)cc2)nc1 (relative stereo) [Ex-201] | fulfilled
O=C(Nc1ccc(Cl)cc1)N[C@@H]1CCN(c2ccc(F)cc2)C[C@H]1c1ccc(Cl)cn1 (relative stereo) [Ex-12] | not fulfilled
COc1ccc([C@@H]2CN(c3cnccn3)CC[C@H]2NC(=O)Nc2ccc(Cl)cc2)nc1 (relative stereo) [Ex-226] | fulfilled
COc1ccc([C@@H]2CN(CC(F)F)CC[C@H]2NC(=O)Nc2ccc(Cl)cc2)nc1 (single isomer, unassigned) [Ex-35] | fulfilled
COc1ccc([C@@H]2CN(C(=O)C3CCN(C)CC3)CC[C@H]2NC(=O)Nc2ccc(Cl)cc2)nc1 (single isomer, unassigned) [Ex-188] | not fulfilled
COc1ccc([C@@H]2CN(c3ccnc(C)n3)CC[C@H]2NC(=O)Nc2cc(C)ns2)nc1 (relative stereo) [Ex-211] | not fulfilled
COc1ccc([C@@H]2CN(CC3(O)CC3)CC[C@H]2NC(=O)Nc2ccc(Cl)cc2)nc1 (relative stereo) [Ex-163] | fulfilled

----------
EC50 values, listed per item
assay_system: UniProt:P25090
Sequence (P25090 1-351): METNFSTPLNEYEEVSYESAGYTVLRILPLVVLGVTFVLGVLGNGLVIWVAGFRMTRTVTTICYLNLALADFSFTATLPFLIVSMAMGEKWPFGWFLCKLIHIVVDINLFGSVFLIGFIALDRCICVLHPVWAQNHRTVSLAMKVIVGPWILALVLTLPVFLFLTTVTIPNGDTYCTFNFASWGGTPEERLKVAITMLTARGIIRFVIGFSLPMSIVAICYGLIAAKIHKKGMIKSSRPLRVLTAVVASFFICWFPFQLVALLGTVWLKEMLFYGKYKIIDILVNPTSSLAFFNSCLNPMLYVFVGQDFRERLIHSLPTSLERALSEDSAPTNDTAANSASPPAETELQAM
assay_text: Agonistic activity in hFPR2-Aq-CHO cells (FLIPR Calcium 5 fluorescence assay)
study_conditions: 11 point half log dilution, final assay concentration from 10µM

compound | assay_system | EC50 (nM)
CNCCN1CC[C@@H](NC(=O)Nc2cc(C)ns2)[C@H](c2ccc(OC)cn2)C1 (relative stereo) | UniProt:P25090 | 2
COc1ccc([C@@H]2CNCC[C@H]2NC(=O)Nc2ccc(Cl)cc2)nc1 (single isomer, unassigned) [Ex-168] | UniProt:P25090 | 0.9
O=C(Nc1ccc(Cl)cc1)N[C@@H]1CCN(Cc2cncc(Cl)c2)C[C@H]1c1ccc(Cl)s1 (relative stereo) | UniProt:P25090 | 2
COc1ccc([C@@H]2CN(CC3CC(OC)C3)CC[C@H]2NC(=O)Nc2ccc(Cl)cc2)nc1 (single isomer, unassigned) [Ex-195] | UniProt:P25090 | 0.5

Source: patent EP3789378A1
